Target: Prothrombin (Homo sapiens, UniProt P00734)
measurement-label: IC50 (nM)
Output spec: scalar in nM, unitless text.

QUERY: # return recorded IC50 for input `CC(C)[C@H](NC(=O)[C@H](Cc1c[nH]c2ccccc12)NC(=O)N[C@H](C)c1ccc(Br)cc1)C(=O)N[C@@H](CCCNC(=N)N)C(=O)c1nccs1`
RESULT: 710

QUERY: # return recorded IC50 for input `CC(C)[C@H](NC(=O)[C@H](CCCNC(N)=O)NC(=O)N[C@H](C)c1ccc(Br)cc1)C(=O)N[C@@H](CCCNC(=N)N)C(=O)c1nccs1`
RESULT: 1100

QUERY: # return recorded IC50 for input `CC(C)[C@H](NC(=O)[C@H](CC(N)=O)NC(=O)N[C@H](C)c1ccc(Br)cc1)C(=O)N[C@@H](CCCNC(=N)N)C(=O)c1nccs1`
RESULT: 400

QUERY: # return recorded IC50 for input `CC(C)C[C@H](NC(=O)NCc1ccc(Cl)c(Cl)c1)C(=O)N[C@@H](Cc1ccc(O)cc1)C(=O)N[C@@H](CCCNC(=N)N)C(=O)c1nccs1`
RESULT: 1000

QUERY: # return recorded IC50 for input CC(C)C[C@H](NC(=O)NC(C)c1ccc(Br)cc1)C(=O)N[C@H](C(=O)N[C@@H](CCCNC(=N)N)C(=O)c1nccs1)C(C)C (stereo partly drawn)
RESULT: 1400

QUERY: # return recorded IC50 for input `CC(C)C[C@H](NC(=O)NCc1ccc(Cl)c(Cl)c1)C(=O)N[C@@H](C)C(=O)N[C@@H](CCCNC(=N)N)C(=O)c1nccs1`
RESULT: 10000

QUERY: # return recorded IC50 for input `CC(C)[C@H](NC(=O)[C@H](CCCN=C(N)N)NC(=O)N[C@H](C)c1ccc(Br)cc1)C(=O)N[C@@H](CCCN=C(N)N)C(=O)c1nccs1`
RESULT: 440

QUERY: # return recorded IC50 for input `CC(C)C[C@H](NC(=O)NCc1ccc(Cl)c(Cl)c1)C(=O)N[C@H](C(=O)N[C@@H](CCCNC(=N)N)C(=O)c1nccs1)C1CCCCC1`
RESULT: 7700

###

Assay: Clearance in iv dosed rat
Assay type: ADME, organism-based
Conditions: in vivo
measurement-label: clearance (mL/min/kg)
Output spec: scalar in mL/min/kg, unitless text.

QUERY: # return recorded clearance for input `CC(C)[C@H](NC(=O)[C@H](Cc1ccc(O)cc1)NC(=O)N[C@H](C)c1ccc(Br)cc1)C(=O)N[C@@H](CCCN=C(N)N)C(=O)c1nccs1`
RESULT: 32

###

measurement-label: pIC50
Interpret pIC50 as the negative base-10 log of the concentration measured in mol/L.

QUERY: Specify pIC50 for CCC(C)[C@H](NC(=O)[C@H](CC(C)C)NC(=O)NCc1ccc(Cl)c(Cl)c1)C(=O)N[C@@H](CCCN=C(N)N)C(=O)c1nccs1 (some centres undefined) , system Coagulation factor XI (Homo sapiens).
RESULT: 7.12

QUERY: Specify pIC50 for `CC(C)[C@H](NC(=O)[C@H](Cc1ccccc1)NNS(=O)(=O)c1ccc(Cl)c(Cl)c1)C(=O)N[C@@H](CCCNC(=N)N)C(=O)c1nccs1` , system Coagulation factor XI (Homo sapiens).
RESULT: 5.64

QUERY: Specify pIC50 for `CC(C)C[C@H](NC(=O)OCc1ccccc1)C(=O)N[C@H](C(=O)N[C@@H](CCCN=C(N)N)C(=O)c1nccs1)C(C)C` , system Coagulation factor XI (Homo sapiens).
RESULT: 6.45

QUERY: Specify pIC50 for `CC(C)[C@H](NC(=O)[C@@H](NC(=O)N[C@@H](C)c1ccc(Br)cc1)C1CCCCC1)C(=O)N[C@@H](CCCN=C(N)N)C(=O)c1nccs1` , system Coagulation factor XI (Homo sapiens).
RESULT: 6.88
